# TEST_TARGET: Tb-labeled inactive PDGFRβ (Homo sapiens (Human))
# Sequence (P09619 33-1106): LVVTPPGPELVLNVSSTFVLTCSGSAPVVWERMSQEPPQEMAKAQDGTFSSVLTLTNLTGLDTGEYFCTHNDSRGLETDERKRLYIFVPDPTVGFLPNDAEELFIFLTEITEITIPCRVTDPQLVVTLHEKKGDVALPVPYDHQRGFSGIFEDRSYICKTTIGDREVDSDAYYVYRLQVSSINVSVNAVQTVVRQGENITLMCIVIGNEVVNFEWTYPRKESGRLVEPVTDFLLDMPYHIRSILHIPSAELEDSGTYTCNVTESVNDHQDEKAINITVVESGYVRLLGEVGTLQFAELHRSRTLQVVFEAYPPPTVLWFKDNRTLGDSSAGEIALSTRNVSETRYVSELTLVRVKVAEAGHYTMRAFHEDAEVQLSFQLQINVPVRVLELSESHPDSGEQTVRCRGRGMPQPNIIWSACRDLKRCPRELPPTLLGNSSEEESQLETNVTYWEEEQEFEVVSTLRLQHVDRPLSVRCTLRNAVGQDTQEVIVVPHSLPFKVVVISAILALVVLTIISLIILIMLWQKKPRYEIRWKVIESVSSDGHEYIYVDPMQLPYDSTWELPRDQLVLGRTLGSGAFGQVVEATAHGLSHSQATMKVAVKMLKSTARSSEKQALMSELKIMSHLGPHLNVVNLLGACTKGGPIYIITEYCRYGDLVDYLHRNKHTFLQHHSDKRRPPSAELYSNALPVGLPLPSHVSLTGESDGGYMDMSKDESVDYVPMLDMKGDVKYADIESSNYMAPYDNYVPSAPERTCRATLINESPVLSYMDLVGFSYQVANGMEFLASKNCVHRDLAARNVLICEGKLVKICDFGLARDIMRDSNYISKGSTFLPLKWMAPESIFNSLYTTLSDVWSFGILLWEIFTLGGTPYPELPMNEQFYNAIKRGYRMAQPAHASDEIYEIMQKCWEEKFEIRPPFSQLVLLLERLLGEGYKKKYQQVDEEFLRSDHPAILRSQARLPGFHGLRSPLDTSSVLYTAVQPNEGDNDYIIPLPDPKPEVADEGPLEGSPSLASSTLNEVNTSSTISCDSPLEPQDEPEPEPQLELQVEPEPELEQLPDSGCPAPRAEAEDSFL
# METHOD: PDGFRβ LanthaScreen Assay
# MEASUREMENT_PARAMETERS: read-out: PDGFR Lantha IC50
pIC50: −log10 of the molar value.
Use class 1 when the recorded pIC50 is no lower than 8; use class 0 when it is lower.

- COMPOUND_STRUCTURE: "CCCNCC(=O)Nc1cnc(C)c(NC(=O)c2cnn3cc(-c4cnn5c4OCCC5)sc23)c1"
  TEST_TARGET: "Tb-labeled inactive PDGFRβ (Homo sapiens (Human))"
  ASSIGNED_LABEL: "class 1"
- COMPOUND_STRUCTURE: "Cc1ncc(NC(=O)C[C@@H]2CCN(C(C)C)C2)cc1NC(=O)c1cnn2cc(-c3cnn(C)c3)sc12"
  TEST_TARGET: "Tb-labeled inactive PDGFRβ (Homo sapiens (Human))"
  ASSIGNED_LABEL: "class 0"
- COMPOUND_STRUCTURE: "CCc1ncccc1-c1cn2ncc(C(=O)Nc3cc(NC(=O)CN4CC(C)(C)C4)cnc3C)c2s1"
  TEST_TARGET: "Tb-labeled inactive PDGFRβ (Homo sapiens (Human))"
  ASSIGNED_LABEL: "class 0"
- COMPOUND_STRUCTURE: "Cc1ncc(NC(=O)CN2CCC3(CC2)CC3)cc1NC(=O)c1cnn2cc(-c3cnn(CCO)c3)sc12"
  TEST_TARGET: "Tb-labeled inactive PDGFRβ (Homo sapiens (Human))"
  ASSIGNED_LABEL: "class 1"

Query :: Decide: is the reported value of pIC50 for "Cc1ncc(C(=O)NCCN2CCCC2(C)C)cc1NC(=O)c1cnn2cc(-c3ccnc(N4CCOCC4)c3)sc12" equal to or greater than 8?
Result :: class 1
